Test: PAMPA permeability of siponimod
Assay type: in vitro ADME
Details: SimCYP V16 input, Novartis internal studies
readoutLabel: Papp (×10⁻⁶ cm/s)
Please state the figure in ×10⁻⁶ cm/s; there is no need to write the unit.

Given the compound CCc1cc(/C(C)=N/OCc2ccc(C3CCCCC3)c(C(F)(F)F)c2)ccc1CN1CC(C(=O)O)C1 , what is its reported Papp?
10

----------
Assay: Physicochemical input parameters of siponimod
Conditions: SimCYP V12 input; Novartis internal studies; read-out: pKa 2
readoutLabel: pKa

Given the compound CCc1cc(/C(C)=N/OCc2ccc(C3CCCCC3)c(C(F)(F)F)c2)ccc1CN1CC(C(=O)O)C1 , what is its reported pKa?
8.6

----------
Test: Genotype specific clearance of siponimod from PopPK analysis
Conditions: human, plasma, oral, CYP2C9*2/*3
readoutLabel: clearance (mL/min)
Please state the figure in mL/min; there is no need to write the unit.

Given the molecule CCc1cc(/C(C)=N/OCc2ccc(C3CCCCC3)c(C(F)(F)F)c2)ccc1CN1CC(C(=O)O)C1 [siponimod, Siponimod] , what is its reported clearance?
28.6

----------
Assay: Genotype specific clearance of siponimod from PopPK analysis
Conditions: human, plasma, oral, CYP2C9*3/*3
readoutLabel: clearance (mL/min)
Please state the figure in mL/min; there is no need to write the unit.

Given the molecule CCc1cc(/C(C)=N/OCc2ccc(C3CCCCC3)c(C(F)(F)F)c2)ccc1CN1CC(C(=O)O)C1 , what is its reported clearance?
13.5

----------
Experiment: Genotype specific clearance of siponimod from PopPK analysis
Conditions: human, plasma, CYP2C9*2/*2
readoutLabel: clearance

Given the molecule CCc1cc(/C(C)=N/OCc2ccc(C3CCCCC3)c(C(F)(F)F)c2)ccc1CN1CC(C(=O)O)C1 , what is its reported clearance?
41.6 mL/min

----------
Experiment: Caco-2 permeability (siponimod, reference compound)
Format: in vitro ADME, human
Settings: human, Caco-2; SimCYP V9 input of the siponimod model; read-out: Reference compound permeability
readoutLabel: Papp (×10⁻⁶ cm/s)
Please state the figure in ×10⁻⁶ cm/s; there is no need to write the unit.

Given the compound CC(C)NCC(O)COc1cccc2ccccc12 (stereo not shown) [Propranolol, reference compound] , what is its reported Papp?
5.33

----------
Assay: Physicochemical input parameters of siponimod
Details: octanol/water; SimCYP V9 input; Novartis internal studies; read-out: Log P: Octanol-water partition
readoutLabel: logP
Give your answer as a number; write no unit.

Given the compound CCc1cc(/C(C)=N/OCc2ccc(C3CCCCC3)c(C(F)(F)F)c2)ccc1CN1CC(C(=O)O)C1 , what is its reported logP?
1.8

----------
Tested on: CYP2C9
Assay: CYP2C9 intrinsic clearance calculated from PopPK genotype specific clearance (SimCYP V16)
Parameters: species or system human
Conditions: human, plasma, CYP2C9*1/*1; total CLp - total CLp*0.207; read-out: CL driven by CYP2C9 (converted)
readoutLabel: clearance (mL/min)
Please state the figure in mL/min; there is no need to write the unit.

Given the compound CCc1cc(/C(C)=N/OCc2ccc(C3CCCCC3)c(C(F)(F)F)c2)ccc1CN1CC(C(=O)O)C1 [siponimod, Siponimod] , what is its reported clearance?
41.2

----------
Experiment: Genotype specific clearance of siponimod from PopPK analysis
Settings: human, plasma, CYP2C9*1/*2
readoutLabel: clearance (mL/min)
Please state the figure in mL/min; there is no need to write the unit.

Given the compound CCc1cc(/C(C)=N/OCc2ccc(C3CCCCC3)c(C(F)(F)F)c2)ccc1CN1CC(C(=O)O)C1 [siponimod, Siponimod] , what is its reported clearance?
52.7
